target: UniProtKB Q9NZQ7; experiment: Enzyme-Linked Immunosorbent Assay (ELISA), PD-1/PD-L1 binding; conditions: PD-1/PD-L1 ELISA, human PD-L1 coated plates, Table 1
Sequence (Q9NZQ7 19-239): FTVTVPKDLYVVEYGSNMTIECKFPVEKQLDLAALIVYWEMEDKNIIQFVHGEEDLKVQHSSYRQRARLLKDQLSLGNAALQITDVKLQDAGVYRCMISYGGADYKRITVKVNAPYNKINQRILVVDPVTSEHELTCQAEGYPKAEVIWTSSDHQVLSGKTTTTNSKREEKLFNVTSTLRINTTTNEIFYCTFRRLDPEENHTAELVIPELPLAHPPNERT
observation-type: IC50

These recorded examples may help you get a feel for the data.
>  <compound>
COc1cc(-c2cccc(-c3cccc(NC(=O)c4ccc(C)cn4)c3C)c2C)cc(F)c1CN1CC(C(=O)O)C1

>  <observation-type>
IC50

>  <experimental-result>
< 10 nM

$$$$
>  <compound>
COc1cc(-c2cccc(-c3cccc(NC(=O)C4CCCCN4)c3C)c2C)cc(F)c1CN1CC(C(=O)O)C1 (stereo not shown)

>  <observation-type>
IC50

>  <experimental-result>
1000 to 10000 nM

$$$$
>  <compound>
COc1cc(-c2cccc(-c3cccc(NC(=O)c4ccnc(N)n4)c3C)c2C)cc(F)c1CN1CC(C(=O)O)C1

>  <observation-type>
IC50

>  <experimental-result>
10 to 1000 nM

$$$$

We next turn to a different compound, shown below.
Prompt line: Fill in reported IC50 for this entry: COc1cc(-c2cccc(-c3cccc(NC(=O)c4cccn(C)c4=O)c3C)c2C)cc(F)c1CNCCO
Response line: < 10 nM
